Recorded values, source patent US20260015350A1.

# target of assay: KRas^G12V (Homo sapiens, UniProt P01116, G12V)
# Construct: Biotinylated KRas (corresponding to amino acids 1-169, produced at Accelegan Inc.); biotin (biotinylated); purchased Accelegan Inc
# Sequence (P01116 1-169 isoform P01116-2 G12V): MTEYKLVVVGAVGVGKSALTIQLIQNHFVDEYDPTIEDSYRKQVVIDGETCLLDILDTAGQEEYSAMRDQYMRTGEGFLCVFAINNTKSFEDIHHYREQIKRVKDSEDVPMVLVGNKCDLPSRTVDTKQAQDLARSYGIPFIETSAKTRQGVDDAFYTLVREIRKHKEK
# protocol summary: KRas binding assay (TR-FRET tracer displacement), KRas G12V
Labelling: IC50 reported below 40 nM becomes Satisfied; at or above becomes Not satisfied.

Solved cases (8 shown):
• CCc1c(F)ccc2cc(O)cc(-c3ncc4c(N5CCCC6(C[C@H](O)[C@H](O)CO6)C5)nc(OC[C@@]56CCCN5C[C@H](F)C6)nc4c3F)c12 (stereo partly drawn) = Not satisfied
• O[C@H]1CCCN(c2nc(OCC34CCCN3CCC4)nc3c(F)c(-c4cccc5cccc(Cl)c45)ncc23)C1 = Not satisfied
• CCc1c(F)ccc2cc(O)cc(-c3ncc4c(NCc5cc(C(=O)N(C)C)nn5CC#N)nc(OC[C@@]56CCCN5C[C@H](F)C6)nc4c3F)c12 = Satisfied
• CCc1c(F)ccc2cc(O)cc(-c3ncc4c(N5CC[C@H]6C(=O)O[C@H]6C5)nc(OC[C@@]56CCCN5C[C@H](F)C6)nc4c3F)c12 = Not satisfied
• CCc1c(F)ccc2cc(O)cc(-c3ncc4c(N5CCCC6(CC=CCO6)C5)nc(OC[C@@]56CCCN5C[C@H](F)C6)nc4c3F)c12 (stereo partly drawn) = Satisfied
• CCc1c(F)ccc2cc(O)cc(-c3ncc4c(N5CCC(O)c6nn(C(=O)N(C)C)cc6C5)nc(OC[C@@]56CCCN5C[C@H](F)C6)nc4c3F)c12 (stereo partly drawn) = Satisfied
• CCc1c(F)ccc2cc(O)cc(-c3ncc4c(N5CCC[C@@](C)(O)C5)nc(OCC5(CN(C)C)CC5CC)nc4c3F)c12 (stereo partly drawn) = Satisfied
• CCc1cccc2cc3[nH]ncc3c(-c3ncc4c(N5CCCn6nc(C(=O)N(C)C)cc6C5)nc(OC[C@@]56CCCN5C[C@H](F)C6)nc4c3F)c12 = Satisfied

Input line: Is 40 nM strictly greater than the compound's reported IC50? compound: CCc1c(F)ccc2cc(O)cc(-c3ncc4c(N5CCCC6(CCCCO6)C5)nc(OC[C@@]56CCCN5C[C@H](F)C6)nc4c3F)c12 (stereo partly drawn)
Output line: Not satisfied

Input line: Is 40 nM strictly greater than the compound's reported IC50? compound: C#Cc1c(F)ccc2cc(O)cc(-c3ncc4c(N5CCCC6(CCO6)C5)nc(OC[C@@]56CCCN5C[C@H](F)C6)nc4c3F)c12 (stereo partly drawn)
Output line: Satisfied

Input line: Below 40 nM on IC50? Entry CN(C)C(=O)c1cc2n(n1)CCCN(c1nc(OCC34CCCN3CCC4)nc3c(F)c(-c4c5ccccc5cc5[nH]ncc45)ncc13)C2
Output line: Not satisfied

Input line: Is the reported IC50 for CCc1c(F)ccc2cc(O)cc(-c3ncc4c(N5CCC[C@@](C)(O)C5)nc(OCC56CCCN5CC(=C(F)F)C6)nc4c3F)c12 (stereo partly drawn) strictly below 40 nM?
Output line: Satisfied
